- measured_target: CK2A1 (CK2α/β) (Homo sapiens)
- assay: CK2 kinase assay, CK2A1 (CK2α/β)
- Format: biochemical
- condition_notes: Table A; read-out: CK2A1 (CK2α/β) (IC50)
experimental_readout: IC50 (nM)

Completed entries (count: 5):
> print(dat)
                                   compound                measured.target  recorded.result
1  N#Cc1cnc2c(NC3CC3)nc(Nc3cc(C(F)F)cc(N4CCC(O)CC4)c3Cl)nn12 [Example 255]  CK2A1 (CK2α/β) (Homo sapiens)             0.53
2  CCNc1nc(Nc2cc(C#N)cc(N3CC(N4CCN(C)CC4)C3)c2Cl)nn2c(C#N)cnc12 [Example 360]  CK2A1 (CK2α/β) (Homo sapiens)             0.73
3  CC(C)(C)[C@H](N)C(=O)N1CC(N2CCN(c3cc(C#N)cc(Nc4nc(NC5CC5)c5ncc(C#N)n5n4)c3Cl)CC2)C1 [Example 505]  CK2A1 (CK2α/β) (Homo sapiens)             5.42
4  C[C@H](O)CC(=O)N1CC(N2CCN(c3cc(C#N)cc(Nc4nc(NC5CC5)c5ncc(C#N)n5n4)c3Cl)CC2)C1 [Example 514]  CK2A1 (CK2α/β) (Homo sapiens)              3.9
5  CCNc1nc(Nc2cc(C#N)cc(N3CCC(N(C)C4COC4)CC3)c2Cl)nn2c(C#N)cnc12 [Example 365]  CK2A1 (CK2α/β) (Homo sapiens)             3.28

A: COC(=O)Nc1cc(Nc2nc(NC3CC3)c3ncc(C#N)n3n2)c(Cl)c(N2CC(N3CCOCC3)C2)c1 [Example 201]
B: CC(C)(O)C1CCN(c2cc(C#N)cc(Nc3nc(NC4CC4)c4ncc(C#N)n4n3)c2Cl)CC1 [Example 16]
Form: Entry with minimum IC50 (choose one): A / B Indicate which entry you chose by stating its label.
B
(B: 1 nM, A: 2.95 nM)

----------
- measured_target: CK2A1 (CK2α/β) (Homo sapiens)
- assay: CK2 kinase assay, CK2A1 (CK2α/β)
- Type: biochemical
- condition_notes: Table A; read-out: CK2A1 (CK2α/β) (IC50)
pIC50: −log10 of the molar value.
experimental_readout: pIC50

> print(dat)
                                   compound  recorded.result
1  CC1CN(c2cc(C#N)cc(Nc3nc(NC4CC4)c4ncc(C#N)n4n3)c2Cl)CCN1C (racemic)             9.42
2  N#CCC1(N2CCC(c3cc(C#N)cc(Nc4nc(NC5CC5)c5ncc(C#N)n5n4)c3Cl)CC2)COC1             9.09
3  N#Cc1cc(Nc2nc(NC3CC3)c3ncc(C#N)n3n2)c(Cl)c(N2C[C@@H]3CCCN[C@@H]3C2)c1 (racemic)             9.19

A: CCNc1nc(Nc2cc(C#N)cc(N3CCN(C4CN(C(=O)OC)C4)CC3)c2Cl)nn2c(C#N)cnc12
B: CC(C)(O)CNC1CCN(c2cc(C#N)cc(Nc3nc(NC4CC4)c4ncc(C#N)n4n3)c2Cl)CC1
Form: Entry with minimum pIC50 (choose one): A / B Indicate which entry you chose by stating its label.
A

A: CC[C@H]1CN(c2cc(C#N)cc(Nc3nc(NC4CC4)c4ncc(C#N)n4n3)c2Cl)C[C@H]1NC(=O)OC (racemic)
B: CCOC(=O)N1CCC(NC2CCN(c3cc(C#N)cc(Nc4nc(NC5CC5)c5ncc(C#N)n5n4)c3Cl)CC2)CC1
C: N#Cc1cc(Nc2nc(NC3CC3)c3ncc(C#N)n3n2)c(F)c(N2CCN([C@@H]3COC[C@H]3O)CC2)c1 (racemic)
D: N#Cc1cc(CN=[N+]=[N-])c(Cl)c(Nc2nc(NC3CC3)c3ncc(C#N)n3n2)c1
Put the items in order so that reported pIC50 rises from first to last. Form field (ranking): labels in requested order.
C, A, B, D
(C: 8.20, A: 8.70, B: 9.08, D: 9.85)

----------
- measured_target: CK2A1 (CK2α/β) (Homo sapiens, UniProt P68400)
- Sequence (P68400 whole entry, species assumed): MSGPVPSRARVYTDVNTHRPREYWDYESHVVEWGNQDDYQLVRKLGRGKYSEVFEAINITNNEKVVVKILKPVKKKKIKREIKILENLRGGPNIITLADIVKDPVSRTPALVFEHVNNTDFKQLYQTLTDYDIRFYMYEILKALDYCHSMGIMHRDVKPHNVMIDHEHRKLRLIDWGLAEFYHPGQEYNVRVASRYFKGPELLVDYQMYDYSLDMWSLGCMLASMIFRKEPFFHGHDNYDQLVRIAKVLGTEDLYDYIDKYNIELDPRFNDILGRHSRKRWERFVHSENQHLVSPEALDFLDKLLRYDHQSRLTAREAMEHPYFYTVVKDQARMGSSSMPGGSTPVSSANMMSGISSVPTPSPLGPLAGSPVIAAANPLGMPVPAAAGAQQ
- Sequence (P67870 whole entry partner, species assumed): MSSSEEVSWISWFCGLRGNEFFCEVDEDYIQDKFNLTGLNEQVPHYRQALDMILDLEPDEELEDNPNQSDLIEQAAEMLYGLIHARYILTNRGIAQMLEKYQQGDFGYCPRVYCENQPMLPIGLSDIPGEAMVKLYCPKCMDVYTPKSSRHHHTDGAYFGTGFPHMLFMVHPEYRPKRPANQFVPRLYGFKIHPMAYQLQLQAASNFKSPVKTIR
- assay: CK2 kinase assay, CK2A1 (CK2α/β)
- Type: biochemical
- condition_notes: Table A; read-out: CK2A1 (CK2α/β) (IC50)
experimental_readout: IC50 (nM)

Completed entries (count: 3):
compound	measured_target	experimental_readout	recorded_result
COC(C)CN1CCN(c2cc(C#N)cc(Nc3nc(NC4CC4)c4ncc(C#N)n4n3)c2Cl)CC1 (stereo not shown)	CK2A1 (CK2α/β) (Homo sapiens, UniProt P68400)	IC50	0.6
N#Cc1cnc2c(NC3CC3)nc(Nc3cc(OC(F)F)cc(N4CCOCC4)c3Cl)nn12	CK2A1 (CK2α/β) (Homo sapiens, UniProt P68400)	IC50	2.12
CS(=O)(=O)N1CCN(CC(O)c2cc(C#N)cc(Nc3nc(NC4CC4)c4ncc(C#N)n4n3)c2Cl)CC1 (stereo not shown)	CK2A1 (CK2α/β) (Homo sapiens, UniProt P68400)	IC50	0.99

I: N#Cc1cc(Nc2nc(NC3CC3)c3ncc(C#N)n3n2)c(Cl)c(N2CC(N3CCOCC3)C2)c1
II: CC1(C(O)c2cc(C#N)cc(Nc3nc(NC4CC4)c4ncc(C#N)n4n3)c2Cl)COC1 (stereo not shown)
III: CN1C(=O)CNC12CCN(c1cc(C#N)cc(Nc3nc(NC4CC4)c4ncc(C#N)n4n3)c1Cl)CC2 (racemic)
IV: CCNc1nc(Nc2cc(C#N)cc(N3CC[C@@H]4[C@@H](C3)OC(=O)N4[C@H]3CCOC3)c2Cl)nn2c(C#N)cnc12 (single isomer, unassigned) [Example 844]
Highest IC50 first, then in falling order down to the smallest. Form field (ranking): labels in requested order.
III, II, IV, I

----------
- measured_target: CK2A1 (CK2α/β) (Homo sapiens, UniProt P68400)
- assay: CK2 kinase assay, CK2A1 (CK2α/β)
- Format: biochemical
- condition_notes: Table A; read-out: CK2A1 (CK2α/β) (IC50)
experimental_readout: IC50 (nM)

Completed entries (count: 2):
> print(dat)
                                   compound                           measured.target  experimental.readout  unit.of.measurement  recorded.result
1  CC(O)CN1CCN(c2cc(C(F)F)cc(Nc3nc(NC4CC4)c4ncc(C#N)n4n3)c2Cl)CC1 (racemic) [Example 249]  CK2A1 (CK2α/β) (Homo sapiens, UniProt P68400)                  IC50                   nM             2.22
2  CNC(C)CC(C)c1cc(Cl)c(Nc2nc(NC3CC3)c3ncc(C#N)n3n2)cc1C#N (centres unmarked) [Example 733]  CK2A1 (CK2α/β) (Homo sapiens, UniProt P68400)                  IC50                   nM             2.24

A: CS(=O)(=O)N1CCN(c2cc(C#N)cc(Nc3nc(NC4CC4)c4ncc(C#N)n4n3)c2Cl)CC1 [Example 4]
B: C[C@@H]1CN(c2cc(C#N)cc(Nc3nc(NC4CC4)c4ncc(C#N)n4n3)c2Cl)C[C@H]1O (racemic) [Example 20]
C: CCNc1nc(Nc2cc(C#N)cc(N3CC[C@@H]4[C@@H](C3)OCCN4C(=O)OC)c2Cl)nn2c(C#N)cnc12 (racemic) [Example 372]
D: N#Cc1cc(Nc2nc(NC3CC3)c3ncc(C#N)n3n2)c(Cl)c(N2CCN(C3CN(C(=O)C4CNCCO4)C3)CC2)c1 (centres unmarked) [Example 489]
Highest IC50 first, then in falling order down to the smallest. Form field (ranking): labels in requested order.
B, D, C, A

I: CCNc1nc(Nc2cc(C#N)cc(C3CN(C[C@H](C)O)C3)c2Cl)nn2c(C#N)cnc12 [Example 368]
II: CN1CC2(CCN(c3cc(C#N)cc(Nc4nc(NC5CC5)c5ncc(C#N)n5n4)c3Cl)CC2)OC1=O [Example 780]
III: N#Cc1cc(Nc2nc(NC3CC3)c3ncc(C#N)n3n2)c(Cl)c(N2CC[C@@H](N3CCOCC3)[C@H](O)C2)c1 (racemic) [Example 306]
Put the items in order so that reported IC50 rises from first to last. Form field (ranking): labels in requested order.
II, III, I

----------
- measured_target: CK2A1 (CK2α/β) (Homo sapiens, UniProt P68400)
- assay: CK2 kinase assay, CK2A1 (CK2α/β)
- Format: biochemical
- condition_notes: Table A; read-out: CK2A1 (CK2α/β) (IC50)
experimental_readout: IC50 (nM)

Completed entries (count: 4):
> print(dat)
                                   molecule  recorded.result
1  [2H]C1(N2CCC(c3cc(C#N)cc(Nc4nc(NCC)c5ncc(C#N)n5n4)c3Cl)CC2)COC1             1.74
2  COC(=O)Nc1cc(Nc2nc(NC3CC3)c3ncc(C#N)n3n2)c(Cl)c(C2CCN(C)CC2)c1              1.8
3  CCNc1nc(Nc2ccc3c(c2)c(C#N)cn3C2CCN(C3CN(C(=O)OC)C3)CC2)nn2c(C#N)cnc12             1.44
4  CCNc1nc(Nc2cc(C#N)cc(C3CCN(CCOC)CC3)c2Cl)nn2c(C#N)cnc12             2.73

a: COC(=O)N1CC(N2CCN(c3cc(C#N)cc(Nc4nc(NC5CC5)c5ncc(C#N)n5n4)c3Cl)CC2)C1
b: CC1(N2CCC(Oc3cc(C#N)cc(Nc4nc(NC5CC5)c5ncc(C#N)n5n4)c3Cl)CC2)COC1
For the two items a and b , which reports the higher IC50 value? Indicate which entry you chose by stating its label.
a
